System Under Test: GST-PSD95 PDZ domain 2 (human)
Assay Protocol: G assay ELISA, E6 PL peptide titrated on constant GST-PDZ
Ends that are not written are not given here.
Readout Kind: EC50 (µM)
Please give a number only; it is taken to be in µM.

Return reported EC50; argument: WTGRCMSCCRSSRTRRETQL (not fully specified; cysteine pairing not given here) [HPV16 E6 C-terminal PDZ ligand peptide (20 mer, biotinylated), P03126 139-158] 6.8

Each recorded value in this set is attributed to patent US20040229298A1.
